# solubility change mitosis (log2) annotations
tested on: HeLa Kyoto; assay: solubility change mitosis vs G1/S (difference of NP-40 vs SDS log2 ratios) (log2 ratio difference); higher = more soluble in mitosis
Answer with the value's number alone.

sequence	solubility change mitosis (log2)
MAGENFATPFHGHVGRGAFSDVYEPAEDTFLLLDALEAAAAELAGVEICLEVGSGSGVVSAFLASMIGPQALYMCTDINPEAAACTLETARCNKVHIQPVITDLVKGLLPRLTEKVDLLVFNPPYVVTPPQEVGSHGIEAAWAGGRNGREVMDRFFPLVPDLLSPRGLFYLVTIKENNPEEILKIMKTKGLQGTTALSRQAGQETLSVLKFTKS [N6AMT1]	0.0523

Lab note: measured solubility change mitosis (log2) of MSLNPPIFLKRSEENSSKFVETKQSQTTSIASEDPLQNLCLASQEVLQKAQQSGRSKCLKCGGSRMFYCYTCYVPVENVPIEQIPLVKLPLKIDIIKHPNETDGKSTAIHAKLLAPEFVNIYTYPCIPEYEEKDHEVALIFPGPQSISIKDISFHLQKRIQNNVRGKNDDPDKPSFKRKRTEEQEFCDLNDSKCKGTTLKKIIFIDSTWNQTNKIFTDERLQGLLQVELKTRKTCFWRHQKGKPDTFLSTIEAIYYFLVDYHTDILKEKYRGQYDNLLFFYSFMYQLIKNAKCSGDKETGKLTH [DTWD1] was -0.213

Lab note: measured solubility change mitosis (log2) of MATLVELPDSVLLEIFSYLPVRDRIRISRVCHRWKRLVDDRWLWRHVDLTLYTMRPKVMWHLLRRYMASRLHSLRMGGYLFSGSQAPQLSPALLRALGQKCPNLKRLCLHVADLSMVPITSLPSTLRTLELHSCEISMAWLHKQQDPTVLPLLECIVLDRVPAFRDEHLQGLTRFRALRSLVLGGTYRVTETGLDAGLQELSYLQRLEVLGCTLSADSTLLAISRHLRDVRKIRLTVRGLSAPGLAVLEGMPALESLCLQGPLVTPEMPSPTEILSSCLTMPKLRVLELQGLGWEGQEAEKILCKGLPHCMVIVRACPKESMDWWM [FBXL12] was -0.183

###

# solubility in G1/S (log2) annotations
system: HeLa Kyoto; assay: solubility in G1/S (NP-40 vs SDS abundance) (log2 ratio); higher = more soluble; settings: cell cycle stage: G1/S
Answer with the value's number alone.

sequence	solubility in G1/S (log2)
MAQETNHSQVPMLCSTGCGFYGNPRTNGMCSVCYKEHLQRQNSSNGRISPPATSVSSLSESLPVQCTDGSVPEAQSALDSTSSSMQPSPVSNQSLLSESVASSQLDSTSVDKAVPETEDVQASVSDTAQQPSEEQSKSLEKPKQKKNRCFMCRKKVGLTGFECRCGNVYCGVHRYSDVHNCSYNYKADAAEKIRKENPVVVGEKIQKI [ZFAND6]	0.396
MAVFADLDLRAGSDLKALRGLVETAAHLGYSVVAINHIVDFKEKKQEIEKPVAVSELFTTLPIVQGKSRPIKILTRLTIIVSDPSHCNVLRATSSRARLYDVVAVFPKTEKLFHIACTHLDVDLVCITVTEKLPFYFKRPPINVAIDRGLAFELVYSPAIKDSTMRRYTISSALNLMQICKGKNVIISSAAERPLEIRGPYDVANLGLLFGLSESDAKAAVSTNCRAALLHGETRKTAFGIISTVKKPRPSEGDEDCLPASKKAKCEG [RPP30]	-0.0469

Lab note: measured solubility in G1/S (log2) of MPGRHVSRVRALYKRVLQLHRVLPPDLKSLGDQYVKDEFRRHKTVGSDEAQRFLQEWEVYATALLQQANENRQNSTGKACFGTFLPEEKLNDFRDEQIGQLQELMQEATKPNRQFSISESMKPKF [SDHAF3] was 0.106

###

test system: HeLa Kyoto; assay: solubility in G1/S (NP-40 vs SDS abundance) (log2 ratio); higher = more soluble; conditions: cell cycle stage: G1/S
readout-kind: solubility in G1/S (log2)
Answer with the value's number alone.

Lab note: measured solubility in G1/S (log2) of MHRRGVGAGAIAKKKLAEAKYKERGTVLAEDQLAQMSKQLDMFKTNLEEFASKHKQEIRKNPEFRVQFQDMCATIGVDPLASGKGFWSEMLGVGDFYYELGVQIIEVCLALKHRNGGLITLEELHQQVLKGRGKFAQDVSQDDLIRAIKKLKALGTGFGIIPVGGTYLIQSVPAELNMDHTVVLQLAEKNGYVTVSEIKASLKWETERARQVLEHLLKEGLAWLDLQAPGEAHYWLPALFTDLYSQEITAEEAREALP [SNF8] was 0.377

Lab note: measured solubility in G1/S (log2) of MAAAVSSVVRRVEELGDLAQAHIQQLSEAAGEDDHFLIRASAALEKLKLLCGEEKECSNPSNLLELYTQAILDMTYFEENKLVDEDFPEDSSSQKVKELISFLSEPEILVKENNMHPKHCNLLGDELLECLSWRRGALLYMYCHSLTKRREWLLRKSSLLKKYLLDGISYLLQMLNYRCPIQLNEGVSFQDLDTAKLLSAGIFSDIHLLAMMYSGEMCYWGSKYCADQQPENHEVDTSVSGAGCTTYKEPLDFREVGEKILKKYVSVCEGPLKEQEWNTTNAKQILNFFHHRCN [C5ORF51] was 0.302

Lab note: measured solubility in G1/S (log2) of MLLKEYRICMPLTVDEYKIGQLYMISKHSHEQSDRGEGVEVVQNEPFEDPHHGNGQFTEKRVYLNSKLPSWARAVVPKIFYVTEKAWNYYPYTITEYTCSFLPKFSIHIETKYEDNKGSNDTIFDNEAKDVEREVCFIDIACDEIPERYYKESEDPKHFKSEKTGRGQLREGWRDSHQPIMCSYKLVTVKFEVWGLQTRVEQFVHKVVRDILLIGHRQAFAWVDEWYDMTMDEVREFERATQEATNKKIGIFPPAISISSIPLLPSSVRSAPSSAPSTPLSTDAPEFLSVPKDRPRKKSAPETLTLPDPEKKATLNLPGMHSSDKPCRPKSE [PITPNC1] was -0.0542

Lab note: measured solubility in G1/S (log2) of MGSQVSVESGALHVVIVGGGFGGIAAASQLQALNVPFMLVDMKDSFHHNVAALRASVETGFAKKTFISYSVTFKDNFRQGLVVGIDLKNQMVLLQGGEALPFSHLILATGSTGPFPGKFNEVSSQQAAIQAYEDMVRQVQRSRFIVVVGGGSAGVEMAAEIKTEYPEKEVTLIHSQVALADKELLPSVRQEVKEILLRKGVQLLLSERVSNLEELPLNEYREYIKVQTDKGTEVATNLVILCTGIKINSSAYRKAFESRLASSGALRVNEHLQVEGHSNVYAIGDCADVRTPKMAYLAGLHANIAVANIVNSVKQRPLQAYKPGALTFLLSMGRNDGVGQISGFYVGRLMVRLTKSRDLFVSTSWKTMRQSPP [AIFM2] was 0.112

Lab note: measured solubility in G1/S (log2) of MRAPIPEPKPGDLIEIFRPFYRHWAIYVGDGYVVHLAPPSEVAGAGAASVMSALTDKAIVKKELLYDVAGSDKYQVNNKHDDKYSPLPCSKIIQRAEELVGQEVLYKLTSENCEHFVNELRYGVARSDQVRDVIIAASVAGMGLAAMSLIGVMFSRNKRQKQ [PLA2G16] was 0.0787

###

# thermal stability score annotations
system: HeLa Kyoto; test: thermal stability score vs G1/S (z-score of summed log2 fold changes over temperatures); higher = more thermally stable than in G1/S; details: cell cycle stage: mitosis
Answer with the value's number alone.

sequence	thermal stability score
MSTEGGGRRCQAQVSRRISFSASHRLYSKFLSDEENLKLFGKCNNPNGHGHNYKVVVTVHGEIDPATGMVMNLADLKKYMEEAIMQPLDHKNLDMDVPYFADVVSTTENVAVYIWDNLQKVLPVGVLYKVKVYETDNNIVVYKGE [PTS]	-1.87

Note: attention shifts to another entry.
Lab note: measured thermal stability score of MGTRDDEYDYLFKVVLIGDSGVGKSNLLSRFTRNEFNLESKSTIGVEFATRSIQVDGKTIKAQIWDTAGQERYRAITSAYYRGAVGALLVYDIAKHLTYENVERWLKELRDHADSNIVIMLVGNKSDLRHLRAVPTDEARAFAEKNNLSFIETSALDSTNVEEAFKNILTEIYRIVSQKQIADRAAHDESPGNNVVDISVPPTTDGQKPNKLQCCQNL [RAB11B] was -0.699

###

tested on: HeLa Kyoto; test: solubility change mitosis vs G1/S (difference of NP-40 vs SDS log2 ratios) (log2 ratio difference); higher = more soluble in mitosis
readout-kind: solubility change mitosis (log2)
Answer with the value's number alone.

See these solved cases before continuing.
sequence	solubility change mitosis (log2)
MPELAVQKVVVHPLVLLSVVDHFNRIGKVGNQKRVVGVLLGSWQKKVLDVSNSFAVPFDEDDKDDSVWFLDHDYLENMYGMFKKVNARERIVGWYHTGPKLHKNDIAINELMKRYCPNSVLVIIDVKPKDLGLPTEAYISVEEVHDDGTPTSKTFEHVTSEIGAEEAEEVGVEHLLRDIKDTTVGTLSQRITNQVHGLKGLNSKLLDIRSYLEKVATGKLPINHQIIYQLQDVFNLLPDVSLQEFVKAFYLKTNDQMVVVYLASLIRSVVALHNLINNKIANRDAEKKEGQEKEESKKDRKEDKEKDKDKEKSDVKKEEKKEKK [PSMD7]	0.00337
MGNGGRSGLQQGKGNVDGVAATPTAASASCQYRCIECNQEAKELYRDYNHGVLKITICKSCQKPVDKYIEYDPVIILINAILCKAQAYRHILFNTQINIHGKLCIFCLLCEAYLRWWQLQDSNQNTAPDDLIRYAKEWDFYRMFAIAALEQTAYFIGIFTFLWVERPMTAKKKPNFILLLKALLLSSYGKLLLIPAVIWEHDYTSVCLKLIKVFVLTSNFQAIRVTLNINRKLSFLAVLSGLLLESIMVYFFQSMEWDVGSDYAIFKSQDF [ARV1]	-0.0477

Note: attention shifts to another entry.
Lab note: measured solubility change mitosis (log2) of MSYVFVNDSSQTNVPLLQACIDGDFNYSKRLLESGFDPNIRDSRGRTGLHLAAARGNVDICQLLHKFGADLLATDYQGNTALHLCGHVDTIQFLVSNGLKIDICNHQGATPLVLAKRRGVNKDVIRLLESLEEQEVKGFNRGTHSKLETMQTAESESAMESHSLLNPNLQQGEGVLSSFRTTWQEFVEDLGFWRVLLLIFVIALLSLGIAYYVSGVLPFVENQPELVH [ANKRD46] was 0.136
